Test system: HCC1143
Assay protocol: normalised viability (% of control), CellTiter-Blue; higher = more viable cells (about 100 = DMSO control)
Condition info: 10000 nM; incubation time: 72 h
I'd be grateful if you could share measured normalised viability for these entries.
Give bare numbers, in %.

Compound: CC(C)(C)NC(=O)[C@H]1CC[C@H]2[C@@H]3CC[C@H]4NC(=O)C=C[C@]4(C)[C@H]3CC[C@]12C [Finasteride]
normalised viability / %: 106
--
Compound: CN(Cc1cnc2nc(N)nc(N)c2n1)c1ccc(C(=O)N[C@@H](CCC(=O)O)C(=O)O)cc1 [Methotrexate]
normalised viability / %: 65.4
--
Compound: CNC(=O)c1ccccc1Sc1ccc2c(/C=C/c3ccccn3)n[nH]c2c1
normalised viability / %: 57.2

Consider now this further compound.
Item CO[C@@H]1[C@H](N(C)C(=O)c2ccccc2)C[C@H]2O[C@]1(C)n1c3ccccc3c3c4c(c5c6ccccc6n2c5c31)C(=O)NC4 : provide normalised viability 61.3
